Molecular target: human TNFα (Homo sapiens)
Construct: purchased Biosource, Camarillo, Calif
Experiment: p55 Receptor/IgG Fusion Protein Binding Assay (inhibition of TNFα capture by p55-Ig coated plate)
Conditions: peptide 1 mM; TNFα 25 ng/ml; read-out: inhibition of binding of TNFα to p55TNFr-IgG chimeric construct
Where a SMILES comes first, the peptide text is derived from it.
ENDPOINT: inhibition at 1000 µM (%)
Please state the figure in %; there is no need to write the unit.

Please review the entries below; each comes with its answer.
[
  {
    "MOLECULE": "C[C@H](NC(=O)[C@H](CCC(=O)O)NC(=O)[C@H](CCCNC(=N)N)NC(=O)[C@H](C)NC(=O)[C@H](CC(=O)O)NC(=O)[C@@H](NC(=O)[C@H](CC(=O)O)NC(=O)[C@H](CCC(N)=O)NC(=O)CNC(=O)[C@@H]1CCCN1C(=O)CN)[C@@H](C)O)C(=O)N[C@@H](CCC(=O)O)C(=O)N[C@@H](CO)C(=O)NCC(=O)N[C@@H](CO)C(N)=O [SEQ ID NO:3] (H-GPGQDTDAREAESGS-NH2)",
    "ENDPOINT": "inhibition at 1000 µM",
    "READING": 53
  },
  {
    "MOLECULE": "CC(C)C[C@H](NC(=O)[C@H](C)NC(=O)[C@H](CC(C)C)NC(=O)[C@H](CO)NC(=O)[C@H](C)NC(=O)[C@H](CC(N)=O)NC(=O)[C@H](Cc1ccccc1)NC(=O)[C@H](C)N)C(=O)N[C@@H](CC(N)=O)C(=O)NCC(=O)N[C@H](C(=O)N[C@H](C(=O)N[C@@H](Cc1c[nH]cn1)C(=O)N[C@@H](CC(C)C)C(=O)N[C@@H](CO)C(N)=O)C(C)C)[C@@H](C)O [SEQ ID NO:14] (H-AFNASLALNGTVHLS-NH2)",
    "ENDPOINT": "inhibition at 1000 µM",
    "READING": 29
  },
  {
    "MOLECULE": "CC(C)C[C@H](NC(=O)[C@@H](N)Cc1c[nH]cn1)C(=O)N1CCC[C@H]1C(=O)N[C@@H](CCC(N)=O)C(=O)N1CCC[C@H]1C(=O)N[C@H](C(=O)N[C@@H](CO)C(=O)N[C@H](C(=O)N[C@@H](CCCNC(=N)N)C(=O)N[C@@H](CO)C(=O)N[C@@H](CCC(N)=O)C(=O)N[C@@H](Cc1c[nH]cn1)C(=O)N[C@H](C(=O)N[C@@H](CCC(N)=O)C(=O)N1CCC[C@H]1C(N)=O)[C@@H](C)O)[C@@H](C)O)C(C)C [SEQ ID NO:56] (H-HLPQPVSTRSQHTQP-NH2)",
    "ENDPOINT": "inhibition at 1000 µM",
    "READING": 67
  },
  {
    "MOLECULE": "C[C@H](NC(=O)[C@H](CCC(=O)O)NC(=O)[C@H](CCCNC(=N)N)NC(=O)[C@H](C)NC(=O)[C@@H](N)CC(=O)O)C(=O)N[C@@H](CCC(=O)O)C(=O)N[C@@H](CO)C(=O)NCC(=O)N[C@@H](CO)C(=O)N[C@@H](Cc1ccccc1)C(=O)N[C@H](C(=O)N[C@@H](C)C(=O)N[C@@H](CO)C(=O)N[C@@H](CCC(=O)O)C(=O)N[C@@H](CC(N)=O)C(N)=O)[C@@H](C)O [SEQ ID NO:5] (H-DAREAESGSFTASEN-NH2)",
    "ENDPOINT": "inhibition at 1000 µM",
    "READING": 58
  }
]

Next:
If you can, please state the reported inhibition at 1000 µM value of CC[C@H](C)[C@H](NC(=O)[C@H](CCC(N)=O)NC(=O)[C@@H]1CCCN1)C(=O)N[C@@H](CCC(=O)O)C(=O)N[C@@H](CC(N)=O)C(=O)N[C@H](C(=O)N[C@@H](CCCCN)C(=O)NCC(=O)N[C@H](C(=O)N[C@@H](CCC(=O)O)C(=O)N[C@@H](CC(N)=O)C(=O)N[C@@H](CO)C(=O)NCC(=O)N[C@H](C(=O)N[C@H](C(N)=O)[C@@H](C)O)[C@@H](C)O)[C@@H](C)O)C(C)C [SEQ ID NO:23] (H-PQIENVKGTENSGTT-NH2) .
52

* * *

Each record here notes measured inhibition at 1000 µM.
Target: human TNFα (Homo sapiens, UniProt P01375)
Construct: purchased Biosource, Camarillo, Calif
Sequence (P01375 77-233 limits assumed): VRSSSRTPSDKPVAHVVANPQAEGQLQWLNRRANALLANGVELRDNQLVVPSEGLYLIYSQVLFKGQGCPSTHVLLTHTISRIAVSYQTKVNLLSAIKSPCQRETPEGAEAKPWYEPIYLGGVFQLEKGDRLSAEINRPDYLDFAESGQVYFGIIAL
Assay: p55 Receptor/IgG Fusion Protein Binding Assay (inhibition of TNFα capture by p55-Ig coated plate)
Conditions: peptide 1 mM; TNFα 25 ng/ml; read-out: inhibition of binding of TNFα to p55TNFr-IgG chimeric construct
Where a SMILES comes first, the peptide text is derived from it.
Please reply with the bare figure in % and do not write the unit itself.

[
  {
    "MOLECULE": "CSCC[C@H](NC(=O)[C@H](CCC(N)=O)NC(=O)[C@H](C)NC(=O)[C@@H](NC(=O)[C@H](CCC(N)=O)NC(=O)[C@H](CC(=O)O)NC(=O)[C@H](Cc1ccc(O)cc1)NC(=O)[C@H](Cc1ccc(O)cc1)NC(=O)[C@H](CCC(=O)O)NC(=O)[C@H](CCCNC(=N)N)NC(=O)[C@H](CC(C)C)NC(=O)[C@@H](N)CCCNC(=N)N)[C@@H](C)O)C(=O)N[C@@H](C)C(=O)N[C@@H](C)C(=O)N[C@@H](CO)C(N)=O [SEQ ID NO:29] (H-RLREYYDQTAQMAAS-NH2)",
    "inhibition at 1000 µM / %": 53
  }
]

// returns reported inhibition at 1000 µM for input CSCC[C@H](NC(=O)[C@H](CCC(N)=O)NC(=O)[C@H](C)NC(=O)[C@@H](NC(=O)[C@H](CCC(N)=O)NC(=O)[C@H](CC(=O)O)NC(=O)[C@H](Cc1ccc(O)cc1)NC(=O)[C@H](Cc1ccc(O)cc1)NC(=O)[C@H](CCC(=O)O)NC(=O)[C@H](CCCNC(=N)N)NC(=O)[C@H](CC(C)C)NC(=O)[C@H](CCCNC(=N)N)NC(=O)[C@H](C)NC(=O)[C@@H](NC(=O)[C@@H](N)CO)[C@@H](C)O)[C@@H](C)O)C(N)=O [SEQ ID NO:28] (H-STARLREYYDQTAQM-NH2)
72

* * *

Target: human TNFα (Homo sapiens)
Construct: purchased Biosource, Camarillo, Calif
Experiment: p55 Receptor/IgG Fusion Protein Binding Assay (inhibition of TNFα capture by p55-Ig coated plate)
Conditions: peptide 1 mM; TNFα 25 ng/ml; read-out: inhibition of binding of TNFα to p55TNFr-IgG chimeric construct
Description: This assay was designed to identify peptides which bind to human TNFα and thereby prevent the capture of the TNFα by a microtiter plate coated with p55-Ig fusion protein. A constant concentration of human TNFα is preincubated with the test peptide and then incubated on the p55-Ig coated microtiter wells. Bound TNFα is detected using a specific antisera and an alkaline phosphatase-conjugated probe. […]
Where a SMILES comes first, the peptide text is derived from it.
ENDPOINT: inhibition at 1000 µM (%)
The response must be a number in % with no trailing unit.

Entry CC(C)[C@H](N)C(=O)N[C@@H](Cc1ccccc1)C(=O)N[C@@H](C)C(=O)N[C@H](C(=O)N[C@@H](CCCCN)C(=O)N[C@H](C(=O)N[C@@H](CO)C(=O)N[C@@H](CC(=O)O)C(=O)N[C@H](C(=O)N[C@H](C(=O)N[C@@H](C)C(=O)N[C@@H](CC(=O)O)C(=O)N[C@@H](CO)C(=O)N[C@@H](C)C(=O)N[C@@H](CCC(=O)O)C(N)=O)C(C)C)[C@@H](C)O)[C@@H](C)O)[C@@H](C)O [SEQ ID NO:32] (H-VFATKTSDTVADSAE-NH2) has what inhibition at 1000 µM?
64

* * *

Target: human TNFα (Homo sapiens, UniProt P01375)
Construct: purchased Biosource, Camarillo, Calif
Test: p55 Receptor/IgG Fusion Protein Binding Assay (inhibition of TNFα capture by p55-Ig coated plate)
Conditions: peptide 1 mM; TNFα 25 ng/ml; read-out: inhibition of binding of TNFα to p55TNFr-IgG chimeric construct
Where a SMILES comes first, the peptide text is derived from it.
Each entry below carries its recorded inhibition at 1000 µM.
All answers are understood in %, so give the number only.

Illustrative cases are given below, each with its answer.
[
  {
    "MOLECULE": "CC(C)C[C@H](NC(=O)[C@H](Cc1ccccc1)NC(=O)[C@H](Cc1ccccc1)NC(=O)CNC(=O)[C@H](C)NC(=O)[C@H](Cc1c[nH]cn1)NC(=O)[C@H](C)NC(=O)[C@@H](N)[C@@H](C)O)C(=O)N[C@@H](CCCNC(=N)N)C(=O)N[C@@H](CCC(=O)O)C(=O)N[C@@H](CC(N)=O)C(=O)N[C@@H](CCC(=O)O)C(=O)N[C@@H](C)C(=O)N[C@H](C(=O)N[C@@H](CO)C(N)=O)C(C)C [SEQ ID NO:18] (H-TAHAGFFLRENEAVS-NH2)",
    "MEASURED_TARGET": "human TNFα (Homo sapiens, UniProt P01375)",
    "MEASURE_UNIT": "%",
    "READING": 68
  },
  {
    "MOLECULE": "C[C@H](NC(=O)[C@@H](NC(=O)[C@H](CO)NC(=O)[C@@H]1CCCN1C(=O)[C@H](CCC(=O)O)NC(=O)[C@@H]1CCCN1C(=O)[C@@H](NC(=O)[C@@H]1CCCN1C(=O)[C@H](CCC(N)=O)NC(=O)[C@@H](N)[C@@H](C)O)[C@@H](C)O)[C@@H](C)O)C(=O)N1CCC[C@H]1C(=O)N[C@@H](CO)C(=O)N[C@H](C(=O)N[C@@H](CO)C(=O)N[C@@H](Cc1ccccc1)C(N)=O)[C@@H](C)O [SEQ ID NO:59] (H-TQPTPEPSTAPSTSF-NH2)",
    "MEASURED_TARGET": "human TNFα (Homo sapiens, UniProt P01375)",
    "MEASURE_UNIT": "%",
    "READING": 73
  },
  {
    "MOLECULE": "CC[C@H](C)[C@H](NC(=O)[C@H](CCC(=O)O)NC(=O)[C@@H](NC(=O)[C@H](CCC(N)=O)NC(=O)CNC(=O)[C@H](CCSC)NC(=O)[C@H](CCC(=O)O)NC(=O)[C@@H](N)CCCCN)C(C)C)C(=O)N[C@@H](CO)C(=O)N[C@@H](CO)C(=O)N[C@@H](C)C(=O)N[C@H](C(=O)N[C@H](C(=O)N[C@@H](CC(=O)O)C(=O)N[C@@H](CCCNC(=N)N)C(N)=O)C(C)C)[C@@H](C)O",
    "MEASURED_TARGET": "human TNFα (Homo sapiens, UniProt P01375)",
    "MEASURE_UNIT": "%",
    "READING": 42
  },
  {
    "MOLECULE": "CC(C)C[C@H](NC(=O)[C@H](CCCNC(=N)N)NC(=O)[C@H](C)NC(=O)[C@@H](NC(=O)[C@H](CO)NC(=O)CNC(=O)[C@@H]1CCCN1C(=O)[C@H](CCC(=O)O)NC(=O)[C@@H]1CCCN1C(=O)[C@H](C)NC(=O)[C@H](Cc1ccc(O)cc1)NC(=O)[C@@H]1CCCN1C(=O)[C@@H](NC(=O)[C@@H](N)Cc1ccccc1)[C@@H](C)O)[C@@H](C)O)C(=O)N[C@@H](CCCNC(=N)N)C(N)=O [SEQ ID NO:25] (H-FTPYAPEPGSTARLR-NH2)",
    "MEASURED_TARGET": "human TNFα (Homo sapiens, UniProt P01375)",
    "MEASURE_UNIT": "%",
    "READING": 69
  }
]

Bench note: what inhibition at 1000 µM did CSCC[C@H](NC(=O)[C@H](CCC(N)=O)NC(=O)[C@H](C)NC(=O)[C@@H](NC(=O)[C@H](CCC(N)=O)NC(=O)[C@H](CC(=O)O)NC(=O)[C@H](Cc1ccc(O)cc1)NC(=O)[C@H](Cc1ccc(O)cc1)NC(=O)[C@@H](N)CCC(=O)O)[C@@H](C)O)C(=O)N[C@@H](C)C(=O)N[C@@H](C)C(=O)N[C@@H](CO)C(=O)N[C@@H](CCCCN)C(=O)N[C@@H](C)C(=O)N[C@@H](CO)C(N)=O [SEQ ID NO:30] (H-EYYDQTAQMAASKAS-NH2) show?
59
